Target: T1, AAV9 (adeno-associated virus 9)
T1 construct: also called adeno-associated virus serotype 9
Assay: SPR, AAV amine-coupled to CM5 chip;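 also: nanobodies flowed as analyte at seven concentrations spanning 1–100 nM over immobilized AAV (500–800 RU), kinetic constants derived by fitting the binding curves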
ENDPOINT_LABEL: kon

[[record]]
binder = "A4-090 (VHH) VHH: VQLQESGGGLVQPGGSLRLSCVASGSRFIINTMGWYRQAPGKQRELVATFTRGGNTNYAESVKGRFTISRDNGKSTVYLQMNSLRPEDTAVYYCHVDEVRESTWTTSNLWGQGTQVTVSS"
reported = "60400 M⁻¹ s⁻¹"

[[record]]
binder = "A4-084 (VHH) VHH: VQLQESGGGLVQPGGSLKLSCAASGSRFSLNTMGWYRQAPRKQREFVAAVTRGGNTNYGDFVKGRFTISRDNAKNTVYLQMNSLRPEDTAVYYCHVDELRESSWTTSNLWGQGTQVTVSS"
reported = "132000 M⁻¹ s⁻¹"

